Tested on: NCI-H522 lung
Assay: NCI-60 one-dose screen, 48 h (100 = growth as untreated, 0 = no growth, -100 = all killed)
Conditions: 10 µM
About 83,000 compounds went through this panel and 20% of them were active in at least one assay; those are over-represented in the sample as a whole.
Provide the reported growth of each item.
State just the number; it will be interpreted in %.

Data request: Please look at this compound and report its growth: CCCCC1COc2cccc3c(SCC(=O)N(C)c4cccc5ccccc45)cc[n+]1c23 (stereo not given)
Data returned: 83.5

Data request: Please look at this compound and report its growth: CN1CCN(c2ccc3nc(-c4ccc5nc(-c6ccc(C(F)(F)F)cc6)[nH]c5c4)[nH]c3c2)CC1
Data returned: 64.1

Data request: Please look at this compound and report its growth: CCCCCCCC/C=C\CCCCCCCCOc1cccc(CC(=O)NCC[N+]2(C)CCOCC2)c1
Data returned: 77

Data request: Please look at this compound and report its growth: Cc1cccc2c(=O)c3c(sc12)c(NCCNCCO)nc1ccccc13
Data returned: 29.1

Data request: Please look at this compound and report its growth: Cc1nc(NN)c([N+](=O)[O-])c(NN)n1
Data returned: 108

Data request: Please look at this compound and report its growth: CCCN(CCC)c1ccc(/C=C/c2ccc3cc(OCC)ccc3n2)cc1
Data returned: 76.8

Data request: Please look at this compound and report its growth: CCOC(=O)c1cn2c3c(cc(F)cc3c1=O)C(CC)c1ccccc1C2 (stereo not given)
Data returned: 78.7

Data request: Please look at this compound and report its growth: CC(C)NCC(O)COc1ccc(CCOCC2CC2)cc1 (stereo not given)
Data returned: 118

Data request: Please look at this compound and report its growth: O=C1c2[nH]cc(CN[C@@H]3CCCN3)c2C(=O)c2c1c(O)c1ccccc1c2O
Data returned: -85.1

Data request: Please look at this compound and report its growth: CN(C)C(=S)SCN1C(=O)c2ccc([N+](=O)[O-])cc2S1(=O)=O
Data returned: 103

Data request: Please look at this compound and report its growth: COc1c(Cl)ccc2c(-c3nc4cc(Cl)c(F)cc4s3)cc(=O)oc12
Data returned: -78.2

Data request: Please look at this compound and report its growth: COC(=O)c1cc(-c2ccc(C)cc2)n(C(=O)CSc2nc3sc(C(N)=O)c(C)c3c(=O)n2Cc2ccccc2)n1
Data returned: 95

Data request: Please look at this compound and report its growth: O=C(CCc1nnc2sc(/C=C\c3ccccc3)nn12)c1nc2ccccc2[nH]1
Data returned: 95.1

Data request: Please look at this compound and report its growth: O=[N+]([O-])c1cc2c(cc1Br)-c1ccccc1C2
Data returned: 77.6

Data request: Please look at this compound and report its growth: COc1nc2c(cc1S(=O)(=O)c1ccccc1)CCc1c-2cnn1-c1ccccc1
Data returned: 47.9

Data request: Please look at this compound and report its growth: COc1cc(-c2nc(Nc3nc4ccccc4[nH]3)nc(N)c2C#N)cc(OC)c1OC
Data returned: 20.1

Data request: Please look at this compound and report its growth: O=C1/C(=C/c2ccc(F)cc2)CN(Cc2cn(CCNc3ccnc4cc(Cl)ccc34)nn2)C/C1=C\c1ccc(F)cc1
Data returned: -75.4

Data request: Please look at this compound and report its growth: Nc1nc2c(s1)CCc1c-2c(Br)n(Cc2ccccc2)c1Br
Data returned: -74.9

Data request: Please look at this compound and report its growth: COC(=O)[C@@H]1CCCN1C(=O)[C@@H]1CCCN1C(=O)[C@@H](Cc1c[nH]c2ccccc12)NC(=S)Nc1cc(C(F)(F)F)cc(C(F)(F)F)c1
Data returned: 73.2

Data request: Please look at this compound and report its growth: N#Cc1c(-c2cccc(F)c2)cc(-c2ccc(Br)s2)[nH]c1=O
Data returned: 35.7

Hey, just so you know, these numbers are from PubChem BioAssay (NCI).
